- Tested on: NCI-H2122
- assay_overview: combination cScore with sotorasib (Bliss gap around IC50) (%PoC); higher = stronger additive effect
// label = rule met if combination cScore with sotorasib is not less than 10, otherwise rule not met

Check out these entries, answers already filled in.
>  <molecule>
CO[C@H]1C[C@@H]2CC[C@@H](C)[C@@](O)(O2)C(=O)C(=O)N2CCCC[C@H]2C(=O)O[C@H]([C@H](C)C[C@@H]2CC[C@@H](O)[C@H](OC)C2)CC(=O)[C@H](C)/C=C(\C)[C@@H](O)[C@@H](OC)C(=O)[C@H](C)C[C@H](C)/C=C/C=C/C=C/1C [Rapamycin] + C=CC(=O)N1CCN(c2nc(=O)n(-c3c(C)ccnc3C(C)C)c3nc(-c4c(O)cccc4F)c(F)cc23)[C@@H](C)C1

>  <assigned_label>
rule met

$$$$
>  <molecule>
COc1cccc2c1C(=O)c1c(O)c3c(c(O)c1C2=O)C[C@@](O)(C(=O)CO)C[C@@H]3O[C@H]1C[C@H](N)[C@H](O)[C@H](C)O1 [Doxorubicin] + C=CC(=O)N1CCN(c2nc(=O)n(-c3c(C)ccnc3C(C)C)c3nc(-c4c(O)cccc4F)c(F)cc23)[C@@H](C)C1

>  <assigned_label>
rule met

$$$$
>  <molecule>
C[C@H](Nc1ccc2c(c1)OCCn1cc(N3C(=O)OC[C@H]3C(F)F)nc1-2)C(N)=O [GDC-0077] + C=CC(=O)N1CCN(c2nc(=O)n(-c3c(C)ccnc3C(C)C)c3nc(-c4c(O)cccc4F)c(F)cc23)[C@@H](C)C1

>  <assigned_label>
rule met

$$$$

**Q:** Reported combination cScore with sotorasib reaches at least 10 for O=C(CCCCCCC(=O)Nc1ccccc1)NO [Vorinostat] + C=CC(=O)N1CCN(c2nc(=O)n(-c3c(C)ccnc3C(C)C)c3nc(-c4c(O)cccc4F)c(F)cc23)[C@@H](C)C1 ?
**A:** rule not met

**Q:** Confirm if combination cScore with sotorasib reported for the molecule O=C(c1cc(Cc2n[nH]c(=O)c3ccccc23)ccc1F)N1CCN(C(=O)C2CC2)CC1 [Olaparib] + C=CC(=O)N1CCN(c2nc(=O)n(-c3c(C)ccnc3C(C)C)c3nc(-c4c(O)cccc4F)c(F)cc23)[C@@H](C)C1 is 10 or above.
**A:** rule not met

**Q:** Item COC(=O)[C@]12CCC(C)(C)C[C@H]1[C@H]1C(=O)C=C3[C@@]4(C)C=C(C#N)C(=O)C(C)(C)[C@@H]4CC[C@@]3(C)[C@]1(C)CC2 [Bardoxolone methyl] + C=CC(=O)N1CCN(c2nc(=O)n(-c3c(C)ccnc3C(C)C)c3nc(-c4c(O)cccc4F)c(F)cc23)[C@@H](C)C1 with combination cScore with sotorasib of 10 or above?
**A:** rule met

**Q:** Please check the record Cc1c(N)nc([C@H](CC(N)=O)NC[C@H](N)C(N)=O)nc1C(=O)N[C@H](C(=O)N[C@H](C)[C@@H](O)[C@H](C)C(=O)N[C@H](C(=O)NCCc1nc(-c2nc(C(=O)NCCC[S+](C)C)cs2)cs1)[C@@H](C)O)[C@@H](OC1OC(CO)C(O)C(O)C1OC1OC(CO)C(O)C(OC(N)=O)C1O)c1cnc[nH]1 (some centres not stated) [Bleomycin] + C=CC(=O)N1CCN(c2nc(=O)n(-c3c(C)ccnc3C(C)C)c3nc(-c4c(O)cccc4F)c(F)cc23)[C@@H](C)C1 and state if its combination cScore with sotorasib is at or above 10.
**A:** rule met
